B1: EHEE_rd3_0053 (parent)
chain: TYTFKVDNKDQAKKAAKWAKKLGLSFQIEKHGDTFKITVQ

variants of: B1; assay: folding stability dG (cDNA display proteolysis); higher = more stable; conditions: PBS, room temperature
measured_property: folding stability dG
Provide the measurement as a number trailed by its unit.

Recorded folding stability dG, per entry:
> print(dat)
   mutation.name       result
1            K9M  11.5 kJ/mol
2            V6K  1.32 kJ/mol
3           L22V  7.45 kJ/mol
4           K21F  8.27 kJ/mol

Hey, can you go through the list below and give me folding stability dG for every item?
1. D33S
2. K5E
3. A16F
4. E29I

Found:
["9.74 kJ/mol", "12.2 kJ/mol", "9.54 kJ/mol", "9.37 kJ/mol"]

Report folding stability dG for every entry below.
1. Q27E
2. E29R

Found:
9.28 kJ/mol
8.84 kJ/mol
